# CRF2R Emax % listing for each entry below; also: reference of the scale not given here
Target: T1, CRF2R; also: reference of the scale not given here
T1 sequence (Q13324 whole entry, species assumed, looked up): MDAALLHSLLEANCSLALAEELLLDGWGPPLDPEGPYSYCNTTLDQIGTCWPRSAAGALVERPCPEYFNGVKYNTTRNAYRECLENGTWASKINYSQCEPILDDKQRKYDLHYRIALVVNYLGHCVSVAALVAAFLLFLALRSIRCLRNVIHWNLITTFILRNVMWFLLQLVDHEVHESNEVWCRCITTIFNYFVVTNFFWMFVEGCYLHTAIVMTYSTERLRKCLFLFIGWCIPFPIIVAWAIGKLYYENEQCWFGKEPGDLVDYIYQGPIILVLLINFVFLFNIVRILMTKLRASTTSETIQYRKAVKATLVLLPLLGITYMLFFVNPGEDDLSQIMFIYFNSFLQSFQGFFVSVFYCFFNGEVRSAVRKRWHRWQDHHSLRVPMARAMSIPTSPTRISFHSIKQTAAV
Assay: cell-based or functional assay
Ends that are not written are not given here.

BINDER	METRIC_NAME	REPORTED_MEASUREMENT
ZGPPISIDLPQWLLRKMIEIEKQEKEKQQAANNRLLLDTI (C-terminal amide) [SEQ ID NO 213]	CRF2R Emax %	99%

stdin: Please report the recorded CRF2R Emax % for ZGPPISIDVPIYLLRKVIEIEKQEKEKQQAANNARLLARI (C-terminal amide) [SEQ ID NO 379] .
stdout: 94%

stdin: Please report the recorded CRF2R Emax % for DNPSLSIDLPLLLLRTLLELEKTQSQRERAEQNARIFDRV-NH2 [SEQ ID NO 338] .
stdout: 77.5%

stdin: Please report the recorded CRF2R Emax % for ZGPPISIDLPAFLLRKMIEIEKQEKEKQQAANNRLLLDTI (C-terminal amide) [SEQ ID NO 222] .
stdout: 100%

stdin: Please report the recorded CRF2R Emax % for NDDPPISIDLPTYLLRNMIEMARIENEREQAGLNAKYLAEV-NH2 [SEQ ID NO 266] .
stdout: 19.4%

stdin: Please report the recorded CRF2R Emax % for ZGPPISIDLPYWLLRKMIEIEKQEKEKQQAANNRLLLDTI (C-terminal amide) [SEQ ID NO 215] .
stdout: 100%
